Value source: the supplement of paper PMC4862054

# System: CAL-148
# ASSAY METHOD TEXT: normalised viability (% of control), CellTiter-Blue; higher = more viable cells (about 100 = DMSO control)
# TEST PARAMETERS: 100 nM; incubation time: 72 h

>  <MOLECULE>
CN1CCN(c2ccc3nc(-c4c(N)c5c(F)cccc5[nH]c4=O)[nH]c3c2)CC1

>  <normalised viability [%]>
89.6

$$$$
>  <MOLECULE>
C#Cc1cccc(Nc2ncnc3cc(OC)c(OCCCCCCC(=O)NO)cc23)c1

>  <normalised viability [%]>
85.2

$$$$
>  <MOLECULE>
O=C(c1ccc(OCCN2CCCCC2)cc1)c1c(-c2ccc(O)cc2)sc2cc(O)ccc12

>  <normalised viability [%]>
93.8

$$$$
>  <MOLECULE>
c1ccc(C2CN3CCSC3=N2)cc1 (centres undefined)

>  <normalised viability [%]>
125

$$$$
